Taken from paper PMC3794980.

IC50 for assorted molecules
target: DRB4*0101 (Homo sapiens, UniProt P01903+P13762, G164S); assay: biochemical
Return type: number; implicit unit µM.

CC[C@H](C)[C@H](NC(=O)[C@H](C)NC(=O)[C@@H](NC(=O)[C@H](C)NC(=O)[C@H](CC(C)C)NC(=O)[C@H](CCCNC(=N)N)NC(=O)[C@H](CCCCN)NC(=O)[C@@H]1CCCN1C(=O)[C@H](CO)NC(=O)[C@H](CC(=O)O)NC(=O)[C@H](C)NC(=O)[C@H](CCC(N)=O)NC(=O)[C@H](Cc1ccccc1)NC(=O)[C@@H](N)CCCCN)[C@@H](C)O)C(=O)N[C@@H](C)C(=O)O    0.916
CC[C@H](C)[C@H](NC(=O)CNC(=O)[C@@H](NC(=O)[C@@H](NC(=O)[C@@H](NC(=O)[C@H](CC(N)=O)NC(=O)[C@H](CO)NC(=O)[C@H](CCC(=O)O)NC(=O)CNC(=O)[C@H](Cc1ccccc1)NC(=O)[C@@H]1CCCN1C(=O)[C@@H]1CCCN1C(=O)[C@H](CCC(=O)O)NC(=O)[C@H](C)NC(=O)[C@@H](N)CCC(=O)O)[C@@H](C)CC)C(C)C)[C@@H](C)CC)C(=O)O    3.81

In the following, a different molecule is considered.
Data point: CSCC[C@H](NC(=O)[C@H](CCSC)NC(=O)[C@H](CC(N)=O)NC(=O)[C@H](Cc1ccc(O)cc1)NC(=O)[C@@H](NC(=O)[C@H](CS)NC(=O)[C@H](CO)NC(=O)CN)C(C)C)C(=O)NCC(=O)N[C@@H](CCCCN)C(=O)N[C@@H](CCCNC(=N)N)C(=O)N[C@@H](CCC(=O)O)C(=O)N[C@@H](CCCCN)C(=O)N[C@@H](CCCCN)C(=O)N[C@@H](CC(C)C)C(=O)NCC(=O)N[C@@H](CCC(=O)O)C(=O)O ; IC50 = 8.47
